Source: PubChem BioAssay (NCI)

tested on: TK-10 renal; assay: NCI-60 one-dose screen, 48 h (100 = growth as untreated, 0 = no growth, -100 = all killed); conditions: 10 µM unless noted
The panel holds about 83,000 compounds, 20% with a hit somewhere; the sample as a whole holds those more often.
metric_name: growth (%)

structure_smiles_string=CC(=O)Oc1ccc(N2C(=O)C(Cl)=C(Nc3cccc(C(F)(F)F)c3)C2=O)cc1 test_result=94.9
structure_smiles_string=COc1ccccc1N1CCCCC1 test_result=95
structure_smiles_string=COc1cc(-c2cncn2-c2ccc(-c3nc4ccc(F)cc4s3)cc2)ccc1F test_result=92.1
structure_smiles_string=COc1ccc(C(=O)N2c3ccccc3Sc3ccccc32)c(OC)c1 test_result=55.8
structure_smiles_string=CC(C)Cn1cnc2c(=O)[nH]c(N)nc21 test_result=88.6
structure_smiles_string=CCOC(=O)c1ccc2c(c1)nc(-c1ccccc1)n2C1CCCCC1 test_result=116

---

test system: SF-268 CNS; assay: NCI-60 one-dose screen, 48 h (100 = growth as untreated, 0 = no growth, -100 = all killed); settings: 10 µM unless noted
This is part of a sample that, as a whole, favours compounds with a hit. Of some 83,000 tested, about 20% had one in any assay.
Quick rule for you: growth under 70% gets label 1, anything else gets label 0.

compound=COc1cc2c(cc1OCCCN1CCN(CCCOc3cc4c(cc3OC)C(=O)N3CC(F)(F)C[C@H]3C=N4)CC1)N=C[C@@H]1CC(F)(F)CN1C2=O system_under_test="SF-268 CNS" assigned_label="label 1"
compound="CC1(C)CC(=O)C2=C(C1)N(c1ccc(OC(F)(F)F)cc1)C(N)=C(C#N)C2c1ccc(Br)cc1F (centres undefined)" system_under_test="SF-268 CNS" assigned_label="label 1"
compound=N#Cc1nc(-c2ccc(F)cc2)oc1S(=O)(=O)N1CCOCC1 system_under_test="SF-268 CNS" assigned_label="label 0"
compound=COc1ccccc1CNc1c2ccccc2nc2ccccc12 system_under_test="SF-268 CNS" assigned_label="label 1"
compound=CC/C(=C(/c1ccc(Cl)cc1)c1ccc(OCCN(C)C)cc1)c1ccc(Cl)cc1 system_under_test="SF-268 CNS" assigned_label="label 0"
compound=COC(=O)CC[C@@H]1O[C@@H](c2cccc(C(F)(F)F)c2)[C@@H](O)[C@H]1O system_under_test="SF-268 CNS" assigned_label="label 0"
compound=O=C(O)c1ccc(-n2cc(/C=N/Nc3ccccc3)c(-c3ccc(F)cc3F)n2)cc1 system_under_test="SF-268 CNS" assigned_label="label 1"
compound=COc1ccc(-c2noc(C(=O)O)c2-c2cc(OC)c(OC)c(OC)c2)cc1 system_under_test="SF-268 CNS" assigned_label="label 1"

---

test system: 786-0 renal; test: NCI-60 one-dose screen, 48 h; conditions: 10 µM unless noted
The panel holds about 83,000 compounds, 20% with a hit somewhere; the sample as a whole holds those more often. Active and inactive are the calls of the source. Rule for the calls: active = growth percent below 10; inactive = the rest.
Labels: active, inactive

molecule=Clc1cccc(Nc2ncnc3ccc(-c4cnc5[nH]ccc5c4)cc23)c1 system_under_test="786-0 renal" assigned_label=active
molecule="Fc1cnccc1C1CC(c2ccc(N3CCNCC3)cc2)=NN1 (stereo unspecified)" system_under_test="786-0 renal" assigned_label=inactive
molecule=COc1cc(OCc2cccc(Br)c2C)cc(OC)c1C=O system_under_test="786-0 renal" assigned_label=inactive
molecule=Nc1nc2ccccc2c2c(=O)c3cccc(Cl)c3sc12 system_under_test="786-0 renal" assigned_label=inactive
molecule=CCSC(SCC)c1ccc(Cl)cc1 system_under_test="786-0 renal" assigned_label=inactive
molecule=O=C(Nc1ccccc1)Nc1ncnc2c1ncn2-c1ccc(Cl)cc1 system_under_test="786-0 renal" assigned_label=inactive

---

tested on: RPMI-8226 leukemia; assay: NCI-60 one-dose screen, 48 h (100 = growth as untreated, 0 = no growth, -100 = all killed); conditions: 10 µM unless noted
Compounds without any hit were thinned out: in the full panel of roughly 83,000, 20% have a hit.
Reported growth values are given for each entry in this list.
metric_name: growth (%)

compound=O=C(/C=C/c1cn(-c2ccccc2)nc1-c1ccc(Cl)cc1)c1ccc(F)cc1 system_under_test="RPMI-8226 leukemia" metric_name=growth unit_annotation=% test_result=67.5
compound=Cc1ccccc1/C=C/C(=O)c1cccc(OCCCCOc2cccc(C(=O)/C=C/c3ccccc3C)c2)c1 system_under_test="RPMI-8226 leukemia" metric_name=growth unit_annotation=% test_result=-6.51
compound=c1cnc2c(-c3nc4ccc5[nH]ncc5c4c4c3CCCC4)c[nH]c2c1 system_under_test="RPMI-8226 leukemia" metric_name=growth unit_annotation=% test_result=34.5
compound=O=c1[nH]c(Cc2nc3ccccc3s2)nc2cc(Br)ccc12 system_under_test="RPMI-8226 leukemia" metric_name=growth unit_annotation=% test_result=66.7
compound=COc1ccc(-c2cc(-c3cc(OC)c(OC)c(OC)c3)c(C#N)c(=O)n2CCCCC(=O)NO)cc1 system_under_test="RPMI-8226 leukemia" metric_name=growth unit_annotation=% test_result=35.9
compound="O=C(CN1C(=O)NC2NC(=O)NC21)N/N=C/c1ccccc1[N+](=O)[O-] (centres undefined)" system_under_test="RPMI-8226 leukemia" metric_name=growth unit_annotation=% test_result=109
compound="CCOC(=O)C1=C(c2ccccc2)N=C2SC=C(c3ccc(Cl)cc3)N2C1c1ccc(Br)cc1 (centres undefined)" system_under_test="RPMI-8226 leukemia" metric_name=growth unit_annotation=% test_result=61.8
compound="C=C(C)[C@@H]1CC[C@]2(C(=O)O)CC[C@]3(C)[C@H](CC[C@@H]4[C@@]5(C)CCC(NC(=O)c6cccc(OC(C)=O)c6OC(C)=O)C(C)(C)[C@@H]5CC[C@]43C)[C@@H]12 (some centres undefined)" system_under_test="RPMI-8226 leukemia" metric_name=growth unit_annotation=% test_result=-17.8
compound=CCCn1cc2c(=O)nc3sc(Cc4ccccc4)c(C)n3c2n1 system_under_test="RPMI-8226 leukemia" metric_name=growth unit_annotation=% test_result=99.5

---

test system: OVCAR-5 ovarian; assay: NCI-60 one-dose screen, 48 h (100 = growth as untreated, 0 = no growth, -100 = all killed); conditions: 10 µM unless noted
The panel holds about 83,000 compounds, 20% with a hit somewhere; the sample as a whole holds those more often.
metric_name: growth (%)

molecule=COc1ccc2c(c1)CC[C@H](O)/C2=C/c1cc(OC)c(OC)c(OC)c1 metric_name=growth test_result=61
molecule=c1ccc([P+](c2ccccc2)(c2ccccc2)c2ccc3c4ccc([P+](c5ccccc5)(c5ccccc5)c5ccccc5)c5cccc(c6cccc2c63)c54)cc1 metric_name=growth test_result=24.3
molecule=COC(=O)/C=C1/SC(=Nc2cccc(OC)c2)N(CCc2c[nH]c3ccc(O)cc23)C1=O metric_name=growth test_result=83.3
molecule=CN(c1cc2ncc(=O)[nH]c2cc1NC(N)=NCc1ccc(Cl)cc1)C1CCCCC1 metric_name=growth test_result=73.2
molecule="COc1ccc(C2CC(c3ccc(Nc4nc(Nc5ccccc5)nc(Nc5ccccc5)n4)cc3)=NN2C(C)=O)cc1 (centres undefined)" metric_name=growth test_result=104
molecule=O=C(NCCNc1nccc(Nc2ccc(S(=O)(=O)Nc3ccccn3)cc2)n1)c1cccc([N+](=O)[O-])c1 metric_name=growth test_result=93
molecule=COc1cc(NS(=O)(=O)c2ccc(-c3cnc(C4CC4)o3)cc2)ccc1F metric_name=growth test_result=36.7
molecule=NC(=O)c1ccc(-c2c3ccccc3cc3c2ccc2ccccc23)cc1 metric_name=growth test_result=74.7
molecule=COc1cc(-c2nc3sccn3c2-c2ccnc(NCCNS(=O)(=O)c3ccccc3)n2)ccc1F metric_name=growth test_result=113

---

test system: OVCAR-8 ovarian; assay: NCI-60 one-dose screen, 48 h (100 = growth as untreated, 0 = no growth, -100 = all killed); details: 10 µM unless noted
Compounds without any hit were thinned out: in the full panel of roughly 83,000, 20% have a hit.
Criterion: growth strictly less than 40%. Met: Satisfied. Not met: Not satisfied.

structure_smiles_string=Cc1ccc(-c2nc([P+](c3ccccc3)(c3ccccc3)c3ccccc3)c(S(=O)(=O)c3ccc(C)cc3)o2)cc1 assigned_label=Satisfied
structure_smiles_string=O=C1/C(=C/c2cn(-c3ccccc3)nc2-c2ccccc2)SC(=S)N1C1CCCCC1 assigned_label="Not satisfied"
structure_smiles_string=O=C(Nc1nc2cc(C(=O)N3CCN(C(c4ccccc4)c4ccccc4)CC3)ccc2o1)c1ccc(NC2CCCCC2)c([N+](=O)[O-])c1 assigned_label=Satisfied
structure_smiles_string=O=[N+]([O-])c1ccc(O)cc1Br assigned_label="Not satisfied"
structure_smiles_string=OB1OCc2cc(/C=C/c3cccc(C(F)(F)F)c3)ccc21 assigned_label=Satisfied
structure_smiles_string=Clc1ccc(/C=N\N=C\c2ccc(Cl)c(Cl)c2)cc1Cl assigned_label="Not satisfied"
structure_smiles_string=O=C(O)c1cn(C2CC2)c2cc(N3CCN(Cc4ccc5ccccc5c4O)CC3)c(F)cc2c1=O assigned_label=Satisfied
structure_smiles_string=COc1ccc(/C=N/NC(=O)c2ccc(-n3cc(-c4ccccc4)nn3)cc2)cc1OC assigned_label="Not satisfied"
structure_smiles_string=Oc1c(Br)cc(Br)c2ccc(Cn3cc(-c4ccc(C(F)(F)F)cc4)nn3)nc12 assigned_label="Not satisfied"
